target: Receptor tyrosine-protein kinase erbB-2 (Homo sapiens) (UniProt P04626); test: reducers of endogenous Her2 protein level, primary screen, SKBR3 breast tumor cells, AlphaScreen, ATP viability (AID 461); details: 18-24 h, at 10 µM, stronger effect = lower value;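 also: lower value means less Her2 protein in the cells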
Sequence (P04626 whole entry, looked up): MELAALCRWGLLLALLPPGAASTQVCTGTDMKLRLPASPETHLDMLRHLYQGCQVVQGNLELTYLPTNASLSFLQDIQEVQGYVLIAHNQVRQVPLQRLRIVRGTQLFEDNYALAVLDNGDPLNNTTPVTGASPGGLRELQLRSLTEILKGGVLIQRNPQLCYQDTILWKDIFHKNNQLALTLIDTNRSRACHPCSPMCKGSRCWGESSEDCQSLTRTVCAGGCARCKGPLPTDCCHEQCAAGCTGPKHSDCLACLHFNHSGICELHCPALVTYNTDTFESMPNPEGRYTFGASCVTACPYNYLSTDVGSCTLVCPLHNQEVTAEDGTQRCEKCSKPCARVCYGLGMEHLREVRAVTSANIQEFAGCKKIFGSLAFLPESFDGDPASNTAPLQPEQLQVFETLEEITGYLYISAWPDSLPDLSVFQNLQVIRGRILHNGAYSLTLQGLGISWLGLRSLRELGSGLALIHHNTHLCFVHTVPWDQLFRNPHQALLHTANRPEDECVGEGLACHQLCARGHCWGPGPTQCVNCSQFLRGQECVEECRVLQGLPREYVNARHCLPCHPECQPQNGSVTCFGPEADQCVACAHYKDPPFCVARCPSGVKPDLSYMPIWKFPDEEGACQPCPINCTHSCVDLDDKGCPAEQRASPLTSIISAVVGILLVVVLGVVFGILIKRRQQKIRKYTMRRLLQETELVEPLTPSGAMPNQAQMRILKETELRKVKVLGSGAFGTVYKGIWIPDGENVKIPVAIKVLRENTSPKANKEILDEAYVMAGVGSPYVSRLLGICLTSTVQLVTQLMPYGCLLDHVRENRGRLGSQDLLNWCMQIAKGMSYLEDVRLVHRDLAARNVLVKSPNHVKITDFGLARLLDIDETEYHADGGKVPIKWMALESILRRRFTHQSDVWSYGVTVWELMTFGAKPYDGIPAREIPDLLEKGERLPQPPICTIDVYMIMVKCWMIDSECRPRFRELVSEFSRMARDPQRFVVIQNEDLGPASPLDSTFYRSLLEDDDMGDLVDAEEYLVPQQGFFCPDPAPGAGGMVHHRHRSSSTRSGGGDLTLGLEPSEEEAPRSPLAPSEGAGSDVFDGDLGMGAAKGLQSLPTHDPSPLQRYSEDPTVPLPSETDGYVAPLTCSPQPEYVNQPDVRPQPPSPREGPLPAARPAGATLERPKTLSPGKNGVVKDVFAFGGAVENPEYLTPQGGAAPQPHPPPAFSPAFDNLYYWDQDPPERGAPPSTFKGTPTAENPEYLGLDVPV
measured attribute: Her2 level (%)

compound=CC(=O)Nc1ccc(S(=O)(=O)n2cnc(C)c2)cc1 measured_attribute="Her2 level" assay_value=93.5
compound=CCC(C(=O)Nc1ncccn1)(C(F)(F)F)C(F)(F)F measured_attribute="Her2 level" assay_value=99
compound="Oc1ccc(N2CCN(C(c3ccncc3)c3nnnn3C3CCCC3)CC2)cc1 (stereo unspecified)" measured_attribute="Her2 level" assay_value=82.5
compound=CCSc1nc2c(c(=O)n(C)c(=O)n2C)n1Cc1ccc(Cl)cc1 measured_attribute="Her2 level" assay_value=71
compound=COc1ccc(N2CCN(C(=O)CSc3ccccc3N)CC2)cc1 measured_attribute="Her2 level" assay_value=88
compound=CN(C)c1ccc(C(=O)OCC(=O)NC2CCCCC2)cc1 measured_attribute="Her2 level" assay_value=97
compound=O=C1NCCCc2c1no[n+]2[O-] measured_attribute="Her2 level" assay_value=103
compound=Cn1c(SCC(=O)c2ccc(-c3ccccc3)cc2)nnc1-c1ccco1 measured_attribute="Her2 level" assay_value=93.5
compound="OC(CN1CCOCC1)Cn1c(-c2cccc(Cl)c2)nc2ccccc21 (stereo unspecified)" measured_attribute="Her2 level" assay_value=80
compound="O=C(NC1CCc2ccccc21)C1CCN(S(=O)(=O)c2ccc(-n3cnnn3)cc2)CC1 (stereo unspecified)" measured_attribute="Her2 level" assay_value=85
compound="COc1ccccc1C1/C(=C(/O)c2ccccc2)C(=O)C(=O)N1CC(C)C (stereo unspecified)" measured_attribute="Her2 level" assay_value=89.5

---

assay: SK-BR-3 cell growth inhibitors, pilot screen, 24 h, human (AID 572); conditions: SK-BR-3 viability, CellTiter-Glo luminescence, at 10 µM, stronger effect = lower value;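 also: compound exposure lasted between 18 and 24 h rather than exactly 24 h; 100% = carrier-treated control wells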
Activity calls are given as the source filed them.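 How the source made its calls: active means viability at or below 10% of carrier control in both of two separate runs; inconclusive means viability at or below 10% in only one of the two runs; inactive means the rest.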
measured attribute: viability

molecule=Cc1nn(C(=O)c2ccccc2)c2c1C(=O)CC(C)(C)C2 measured_attribute=viability assay_value="76% (inactive)"
molecule=Cc1ccc(C(C)C)c(OCc2nnc(SCC(=O)Nc3ncc(C)s3)n2C)c1 measured_attribute=viability assay_value="89.5% (inactive)"
molecule=CCN(CC)CCNC(=O)c1cc(Cl)c(N)cc1OC measured_attribute=viability assay_value="89% (inactive)"
molecule=CCCOc1cccc(NC(=O)c2c(-c3ccccc3)noc2C)c1 measured_attribute=viability assay_value="94% (inactive)"
molecule=O=c1c(O)c(-c2ccc(O)cc2O)oc2cc(O)cc(O)c12 measured_attribute=viability assay_value="94% (inactive)"
molecule="CCOC(=O)c1cnc(-n2nc(C)cc2C)nc1N1CC(C)OC(C)C1 (stereo unspecified)" measured_attribute=viability assay_value="127% (inactive)"

---

experiment: reversal of MRP1-mediated doxorubicin resistance, pilot screen, H69AR cells, doxorubicin co-treatment (AID 601); conditions: H69AR cells, CellTiter-Glo, 72 h; compound alone cytotoxicity; at 10 µM
Mark MET only when viability stays strictly below 90%. Values equal to the cut-off are NOT MET.

molecule=Cc1cc(C)nc(N2CCC(C(=O)Nc3ccc4c(c3)CCC4)CC2)n1 discrete_label="NOT MET"
molecule=Cc1[nH]nc2c1C(=O)CCC2 discrete_label="NOT MET"
molecule=O=C(CSc1nnc(-c2ccccc2)o1)NC1CCCCC1 discrete_label="NOT MET"
molecule="CC(=O)NC(Cc1ccc(C)cc1)C(=O)NC1CCN(C(=O)c2cnccn2)CC1 (centres undefined)" discrete_label="NOT MET"
molecule="COc1cc2cc(C(c3nnnn3C3CCCC3)N(C)C3CCCCC3)c(=O)[nH]c2cc1OC (centres undefined)" discrete_label=MET
molecule="CCn1ncc(C2=NOC(C(=O)N3CCC(C(N)=O)CC3)C2)c1C (centres undefined)" discrete_label="NOT MET"
molecule=O=C(CN(c1ccc(F)cc1)S(=O)(=O)c1ccc2c(c1)OCCO2)Nc1cccnc1 discrete_label="NOT MET"
molecule=Cc1csc(NC(=O)Nc2cccc(Cl)c2)n1 discrete_label="NOT MET"
molecule=C=CCNc1nc2c(c(=O)n(C)c(=O)n2C)n1CCCCCC discrete_label=MET
molecule=COc1cccc(-n2c(C)nc3c(cnn3-c3ccc(Cl)cc3)c2=O)c1 discrete_label=MET
molecule="CC(=O)NC1CC2CCCC(C1)N2CC(=O)Nc1ccccc1 (centres undefined)" discrete_label="NOT MET"
molecule=Cc1cc(C)n(-c2ccc3cccc(NS(C)(=O)=O)c3n2)n1 discrete_label=MET
molecule=CCn1c(SCC(=O)c2ccc(Cl)cc2)nnc1-c1ccoc1C discrete_label="NOT MET"
molecule="CCCC1c2ccc(C)n2CCN1C(=O)Nc1ccccc1Cl (centres undefined)" discrete_label="NOT MET"
molecule="O=C(O)CSC1CC(=O)N(c2ccc(Cl)c(Cl)c2)C1=O (centres undefined)" discrete_label="NOT MET"
molecule=C=CCn1c(=O)c(C(=O)Nc2ccccc2C(=O)OCC)c(O)c2ccccc21 discrete_label=MET
molecule=COC(=O)c1ccccc1NC(=O)c1cnc2sccn2c1=O discrete_label="NOT MET"
molecule=Cc1cccn2c(=O)c3cc(C#N)c(=NC(=O)c4ccncc4)n(Cc4ccco4)c3nc12 discrete_label=MET
molecule=O=C(CSc1nnc(NC(=O)C2CCC2)s1)NC1CC1 discrete_label="NOT MET"
molecule="O=C(NCc1cccs1)C1CC(=O)N(C2CCCC2)C1 (centres undefined)" discrete_label="NOT MET"
molecule="CCN(CC)C(=O)C1CCN(CC2CC=CCC2)CC1 (centres undefined)" discrete_label="NOT MET"
molecule="Cc1ccc(S(=O)(=O)C(C#N)c2nc3ccccc3nc2OC(C)C)cc1 (centres undefined)" discrete_label="NOT MET"
molecule=Oc1ccccc1-c1cc(C(F)(F)C(F)F)[nH]n1 discrete_label="NOT MET"
molecule=COC(=O)c1ccccc1NC(=O)COc1ccc(S(=O)(=O)N2CCCC2)cc1C discrete_label=MET
molecule=CCOC(=O)c1cc(-c2ccccc2)sc1N discrete_label=MET
molecule=COCCCC/C(=N\OCCN)c1ccc(C(F)(F)F)cc1 discrete_label="NOT MET"
molecule="CC(C)CCNC(=O)C(c1ccco1)N(CC1CCCO1)C(=O)Cn1nnc2ccccc21 (centres undefined)" discrete_label="NOT MET"
molecule=CCN1CCN(c2c(Cl)cccc2NC(=O)c2ccc3c(c2)OCCO3)CC1 discrete_label=MET
molecule=CCCCC[C@H](O)/C=C/[C@H]1C=CC(=O)[C@@H]1C/C=C\CCCC(=O)O discrete_label=MET
molecule=O=C(CN1CCN(c2nc(-c3ccccc3)cs2)CC1)Nc1ccc2c(c1)OCO2 discrete_label="NOT MET"

---

assay: reversal of MRP1-mediated doxorubicin resistance, pilot screen, H69AR cells, doxorubicin co-treatment (AID 601); conditions: H69AR cells + 2 uM doxorubicin, CellTiter-Glo, 72 h; measured here: viability with 2 uM doxorubicin; at 10 µM; stronger effect = lower value
Mark TRUE only when viability stays strictly below 90%. Values equal to the cut-off are FALSE.

compound="C=CCOc1ccc(C2/C(=C(\\O)c3c(C)[nH]c(C(=O)OC)c3C)C(=O)C(=O)N2CCN(C)C)cc1 (stereo not given)" discrete_label=FALSE
compound="CC1CCCc2sc3nc(NCc4ccco4)n4ncnc4c3c21 (stereo not given)" discrete_label=TRUE
compound=COc1ccccc1N1CCN(C(=O)c2cc(-c3ccc(Cl)c(Cl)c3)on2)CC1 discrete_label=TRUE
compound="CCC(C(=O)Nc1ccccc1C(=O)N1CCCC1)N1C(=O)c2ccccc2C1=O (stereo not given)" discrete_label=FALSE
compound=COc1ccc(N=C2C(=O)Nc3ccccc32)cc1 discrete_label=TRUE
compound=CCOC(=O)N1CCN(C(=O)Nc2ccc3oc(C)nc3c2)CC1 discrete_label=FALSE
compound=COc1ccc(-n2c(=O)cc(N3CCN(Cc4ccccc4)CC3)[nH]c2=O)cc1 discrete_label=FALSE

---

Reported viability values are given for each entry in this list.
assay: HUVEC growth inhibition – cell-based, human, primary screen (AID 575); settings: HUVEC proliferation, CellTiter-Glo luminescence, 72 h; at 10 µM; stronger effect = lower value;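 also: 100% = median of untreated cell wells with 0.1% DMSO on each plate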
measured attribute: viability (%)

molecule="O=C(NC1CCCCCC1)C1CCCN(S(=O)(=O)c2cccs2)C1 (centres undefined)" measured_attribute=viability value_units=% assay_value=101
molecule="O=C(c1ccccc1)N1CCN(CC2CC=CCC2)CC1 (centres undefined)" measured_attribute=viability value_units=% assay_value=102
molecule=COCCn1c(-c2ccco2)nc2nc3ccccc3nc21 measured_attribute=viability value_units=% assay_value=99.1
molecule="Cc1ccc(CC2SC(=O)NC2=O)cc1Cl (centres undefined)" measured_attribute=viability value_units=% assay_value=75.8
molecule="CNC(=O)OC(C)CNS(=O)(=O)c1ccc(C)cc1 (centres undefined)" measured_attribute=viability value_units=% assay_value=106
molecule=CCOC(=O)c1cccc(NC(=O)CSc2nnc(-c3cccnc3)n2C)c1 measured_attribute=viability value_units=% assay_value=107
molecule=NC(N)=NC(N)=NCCc1ccccc1 measured_attribute=viability value_units=% assay_value=104
molecule=COCCCN(Cc1ccccn1)S(=O)(=O)Cc1ccccc1 measured_attribute=viability value_units=% assay_value=83.5
molecule=Cc1cc(C(=O)COC(=O)CCc2nc3ccccc3s2)c(C)n1C measured_attribute=viability value_units=% assay_value=116
molecule=COc1ccc(-n2c(=O)cc(N3CCN(Cc4ccccc4)CC3)[nH]c2=O)cc1 measured_attribute=viability value_units=% assay_value=94
molecule="CCOc1cccc(C(=O)N(Cc2ccco2)C2CCS(=O)(=O)C2)c1 (centres undefined)" measured_attribute=viability value_units=% assay_value=109
molecule="COc1cc(C2C3=C(CC(C)(C)CC3=O)Nc3c2c(=O)[nH]c(=O)n3Cc2ccccc2)ccc1O (centres undefined)" measured_attribute=viability value_units=% assay_value=83.3
molecule="CC(C)CN(CC(C)C)C(=O)C12CCC(C)(C(=O)C1)C2(C)C (centres undefined)" measured_attribute=viability value_units=% assay_value=110
molecule=Clc1cccc(Cl)c1COc1ccncc1 measured_attribute=viability value_units=% assay_value=91.5
molecule="CC1CN(C(=O)CSc2ncnc3sccc23)CC(C)O1 (centres undefined)" measured_attribute=viability value_units=% assay_value=103
molecule=Cc1ccc(NC(=O)COC(=O)c2ccn(C)n2)cc1 measured_attribute=viability value_units=% assay_value=90.8
molecule="CCC(C)(C)n1nnnc1C(c1cc2cc(C)ccc2[nH]c1=O)N1CCCC1 (centres undefined)" measured_attribute=viability value_units=% assay_value=98.7
molecule=Cc1c(NC(=O)CCc2ccc(S(=O)(=O)N3CCOCC3)cc2)c(=O)n(-c2ccccc2)n1C measured_attribute=viability value_units=% assay_value=109
molecule="CCC1CCCCN1C(=O)CSc1nnc(-c2ccco2)o1 (centres undefined)" measured_attribute=viability value_units=% assay_value=94.4
molecule=COc1ccc(-c2nc(C)sc2CC(=O)O)cc1 measured_attribute=viability value_units=% assay_value=103
molecule=COc1cc(C(=O)OCc2cc3ccccc3[nH]c2=O)cc(OC)c1OC measured_attribute=viability value_units=% assay_value=68.6
molecule=O=C(NCCO)c1cc2ccccc2cc1O measured_attribute=viability value_units=% assay_value=110
molecule=CCOC(=O)C1CCN(C(=O)Nc2ccc3nc(C)c(C)nc3c2)CC1 measured_attribute=viability value_units=% assay_value=109
molecule=CSc1ccc(-c2cc(=O)c3ccccc3o2)cc1 measured_attribute=viability value_units=% assay_value=48.1
